# study.system: FGFR3 (Homo sapiens, UniProt P22607)
# Construct: Enzymes (from Upstate) were prepared at 2× final concentration in 1× kinase assay buffer; purchased Upstate
# Sequence (P22607 23-806): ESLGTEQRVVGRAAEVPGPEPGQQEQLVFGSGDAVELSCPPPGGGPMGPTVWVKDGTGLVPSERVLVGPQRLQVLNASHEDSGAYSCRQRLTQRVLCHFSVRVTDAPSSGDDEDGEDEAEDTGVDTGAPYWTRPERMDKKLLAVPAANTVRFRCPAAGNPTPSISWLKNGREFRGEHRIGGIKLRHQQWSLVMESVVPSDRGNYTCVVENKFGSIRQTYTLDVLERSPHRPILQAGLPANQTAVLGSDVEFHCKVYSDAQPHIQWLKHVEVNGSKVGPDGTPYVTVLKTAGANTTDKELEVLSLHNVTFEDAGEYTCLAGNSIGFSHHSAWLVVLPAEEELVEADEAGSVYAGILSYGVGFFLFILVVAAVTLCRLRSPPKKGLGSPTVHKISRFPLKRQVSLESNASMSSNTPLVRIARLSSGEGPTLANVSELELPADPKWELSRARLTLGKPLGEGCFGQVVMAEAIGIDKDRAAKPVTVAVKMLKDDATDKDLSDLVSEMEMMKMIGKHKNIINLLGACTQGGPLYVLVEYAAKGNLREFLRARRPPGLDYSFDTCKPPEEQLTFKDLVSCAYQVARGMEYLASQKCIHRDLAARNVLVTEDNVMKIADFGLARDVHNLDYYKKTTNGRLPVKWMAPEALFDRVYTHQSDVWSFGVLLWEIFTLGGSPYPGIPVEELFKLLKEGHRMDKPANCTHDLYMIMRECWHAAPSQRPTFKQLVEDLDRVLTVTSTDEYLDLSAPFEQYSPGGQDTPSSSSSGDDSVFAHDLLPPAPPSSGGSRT
# protocol.details: FGFR3 in vitro kinase inhibitory activity assay (TRF)
# Assay type: biochemical
# assay.conditions: given as a bound; read-out: IC50 in the FGFR3 assay
pIC50: −log10 of the molar value. Where a name gives a salt, the structure may show the parent alone.
readout.type: pIC50

Below are worked cases with known answers.
compound	study.system	observed.result
Nc1cccc(-c2ccn3c(-c4cccc(Nc5nncs5)c4)cnc3c2)c1 [Example 32, Hydrochloride]	FGFR3 (Homo sapiens, UniProt P22607)	> 6.00
Cn1cc(-c2cnc3c(-c4cccc(Nc5nncs5)c4)cnn3c2)cn1	FGFR3 (Homo sapiens, UniProt P22607)	> 6.00
O=C1CN(Cc2cccc(-c3ccn4c(-c5cccc(Nc6nncs6)c5)cnc4c3)c2)CCN1 [Example 28, Formate]	FGFR3 (Homo sapiens, UniProt P22607)	> 6.00
OCc1cccc(-c2ccn3c(-c4cccc(Nc5nncs5)c4)cnc3c2)c1	FGFR3 (Homo sapiens, UniProt P22607)	> 6.00
CNC(=O)c1cccc(-c2ccn3c(-c4cccc(Nc5nncs5)c4)cnc3c2)c1 [Example 30, Hydrochloride]	FGFR3 (Homo sapiens, UniProt P22607)	> 6.00

Can you look up the measured pIC50 of Cc1ccn2c(-c3cccc(Nc4nncs4)c3)cnc2c1 [Example 41, Hydrochloride] for me?
> 6.00

Can you look up the measured pIC50 of c1cc(Nc2nncs2)cc(-c2cnc3cc(N4CCCCC4)ccn23)c1 for me?
> 6.00

Can you look up the measured pIC50 of Nc1nc(Nc2cccc(-c3cnc4cc(-c5ccc(F)cc5)ccn34)c2)n[nH]1 for me?
> 6.00

Cited source: patent US8513276B2
